# Test summary: NCI Yeast Anticancer Drug Screen. Data for the sgs1 strain (AID 173);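 further: 0% = growth of vehicle-only control cultures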
# Applied conditions: S. cerevisiae sgs1 mutant, at 100.0 µM
The panel holds about 79,000 compounds, 15% with a hit somewhere; the sample as a whole holds those more often. Calls of active or inactive are those of the source. No stated cut-off is given here; in the data, active means growth inhibition above about 70%; inactive means the rest.
The reply should name one outcome from 1.0 = active, 0.0 = inactive

# input Which result was noted for this compound in the test: CN(C)c1ccc(N=Nc2ccccn2)cc1
# output 1.0

# input Which result was noted for this compound in the test: Cc1ccc(I)cc1N=C=S
# output 1.0

# input Which result was noted for this compound in the test: COCCCN(Cc1cc(OC)c(OC)c(OC)c1)C(=S)Nc1cccc(Cl)c1
# output 0.0

# input Which result was noted for this compound in the test: O=Cc1coc2ccccc2c1=O
# output 0.0

# input Which result was noted for this compound in the test: O=c1[nH]c2ccccc2c2nc3ccccc3n12
# output 0.0

# input Which result was noted for this compound in the test: Cc1ccc(CNc2ccc(Br)cc2)cc1
# output 1.0

# input Which result was noted for this compound in the test: COc1ccc(N2C(=O)CC(Cl)C2=O)cc1 (stereo not drawn)
# output 1.0

# input Which result was noted for this compound in the test: O=[N+]([O-])c1cc(S(=O)(=O)Nc2ccccc2)ccc1Cl
# output 1.0

# input Which result was noted for this compound in the test: Nc1cc(F)cc2c1-c1ccc(F)cc1C2
# output 1.0

# input Which result was noted for this compound in the test: N#CC(=C1C=CC(=NO)C=C1)c1ccccc1
# output 1.0

# input Which result was noted for this compound in the test: O=S(=O)(N/N=C/c1cccc(Cl)c1)c1ccccc1
# output 1.0

# input Which result was noted for this compound in the test: CCN(CC)CCNC(=O)c1nn(-c2ccc(Cl)cc2)c2c1CCc1cc(OC)ccc1-2
# output 1.0

# input Which result was noted for this compound in the test: O=C1CSC(=S)N1Cc1ccc(Cl)cc1Cl
# output 1.0

* * *

# Test summary: NCI Yeast Anticancer Drug Screen. Data for the rad50 strain (AID 155);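 further: 0% = growth of vehicle-only cultures of the same strain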
# Applied conditions: S. cerevisiae rad50 strain growth inhibition; at 50.0 µM; stronger effect = higher value
Compounds without any hit were thinned out: in the full panel of roughly 79,000, 15% have a hit. Residues, ends and D or L forms follow the SMILES beside them. *: point of attachment. CH2Cl = ClC*
# cutoff 80% applies to growth inhibition; >= gives MET, < gives NOT MET

# input Please tell me: is the compound CCCCCCCCCCCCCCCCNC(=O)/C(=C\c1ccc(Cl)c(Cl)c1)NC(=O)c1ccccc1 at or over 80% in terms of growth inhibition?
# output MET

# input Please tell me: is the compound COc1cc(N(C)C)ccc1/C=C\c1ccnc2ccccc12 at or over 80% in terms of growth inhibition?
# output NOT MET

# input Please tell me: is the compound COc1ccc(N2C(=O)CC(Cl)C2=O)cc1 (stereo unspecified) at or over 80% in terms of growth inhibition?
# output MET

# input Please tell me: is the compound N#CC(=C1C=CC(=NO)C=C1)c1ccccc1 at or over 80% in terms of growth inhibition?
# output MET

# input Please tell me: is the compound OCCN(CCO)c1ccc2c(c1)Cc1ccccc1-2 at or over 80% in terms of growth inhibition?
# output NOT MET

# input Please tell me: is the compound CC(=O)NC(CC(C)C)C(=O)NC(Cc1ccccc1)C(=O)CCl (stereo not drawn) (Ac-Leu-Phe-CH2Cl; configuration not given here) at or over 80% in terms of growth inhibition?
# output NOT MET

# input Please tell me: is the compound Nc1ccc2c(c1)sc1ccccc12 at or over 80% in terms of growth inhibition?
# output MET

# input Please tell me: is the compound CCOC(=O)Nc1ccc2c(c1)Cc1ccccc1-2 at or over 80% in terms of growth inhibition?
# output NOT MET

# input Please tell me: is the compound O=C(NCCCCCN1CCC2(CCCCC2)CC1)C(C1CCCCC1)C1CCCCC1 at or over 80% in terms of growth inhibition?
# output MET

# input Please tell me: is the compound COc1ccc(C(C#N)=C2C=CC(=NO)C=C2)cc1 at or over 80% in terms of growth inhibition?
# output NOT MET

# input Please tell me: is the compound CN(C)CCN1C(=O)c2cccc3cc([N+](=O)[O-])cc(c23)C1=O at or over 80% in terms of growth inhibition?
# output NOT MET

# input Please tell me: is the compound COc1cc([C@@H]2c3cc4c(cc3[C@@H](OC3OC5COC(C)OC5C(O)C3O)[C@H]3COC(=O)[C@H]23)OCO4)cc(OC)c1O (stereo partly specified) at or over 80% in terms of growth inhibition?
# output NOT MET

# input Please tell me: is the compound CC1C(C#N)(C#N)C(C#N)=C(N)C1(Cl)[N+](=O)[O-] (stereo unspecified) at or over 80% in terms of growth inhibition?
# output NOT MET

# input Please tell me: is the compound CN(C)CCNc1cccc2sc3ccc(O)cc3c(=O)c12 at or over 80% in terms of growth inhibition?
# output MET

# input Please tell me: is the compound O=C1C=CC(=O)N1c1ccc2c(c1)OCO2 at or over 80% in terms of growth inhibition?
# output MET

# input Please tell me: is the compound O=C1C(Cl)=C(Cl)C(Cl)(Cl)C(Cl)C1(Cl)Cl (stereo unspecified) at or over 80% in terms of growth inhibition?
# output MET

# input Please tell me: is the compound CCCCC(=O)c1c(O)nc2sccn2c1=O at or over 80% in terms of growth inhibition?
# output MET

# input Please tell me: is the compound Clc1cc(Cc2ccc(N=C/C=C/c3ccccc3)c(Cl)c2)ccc1N=C/C=C\c1ccccc1 at or over 80% in terms of growth inhibition?
# output NOT MET

# input Please tell me: is the compound NNC(=S)Nc1cccc2ccccc12 at or over 80% in terms of growth inhibition?
# output NOT MET

# input Please tell me: is the compound O=C(O)c1[nH]c(=O)c2ccccc2c1Nc1ccccc1 at or over 80% in terms of growth inhibition?
# output NOT MET

# input Please tell me: is the compound S=C(S)NCC1CCC(CNC(=S)S)CC1 (stereo unspecified) at or over 80% in terms of growth inhibition?
# output NOT MET

# input Please tell me: is the compound Cn1ncc2cc3c(Nc4ccc(Cl)cc4)cccc3nc21 at or over 80% in terms of growth inhibition?
# output NOT MET

# input Please tell me: is the compound N#C/C(=C/c1c(Cl)cccc1Cl)C(N)=O at or over 80% in terms of growth inhibition?
# output NOT MET

# input Please tell me: is the compound CC(=O)Oc1ccc(N2C(=O)C3c4[nH]c5ccccc5c4C4CCC(C(C)(C)C)CC4C3C2=O)cc1 (stereo unspecified) at or over 80% in terms of growth inhibition?
# output MET

# input Please tell me: is the compound Nc1ccc(CCl)cc1Cc1c(O)ccc2ccccc12 at or over 80% in terms of growth inhibition?
# output NOT MET

# input Please tell me: is the compound CCCCCCCCN1C(=O)c2ccccc2C1=O at or over 80% in terms of growth inhibition?
# output NOT MET

# input Please tell me: is the compound O=C(Nc1cccc(C(F)(F)F)c1)Oc1ccc(Cl)cc1C(=O)c1ccccc1 at or over 80% in terms of growth inhibition?
# output MET

# input Please tell me: is the compound COC(=O)c1ccc2c(c1)Cc1ccccc1-2 at or over 80% in terms of growth inhibition?
# output NOT MET

# input Please tell me: is the compound Nc1nc(F)nc2c1ncn2C1OC(COP(=O)(O)O)C(O)C1O (stereo unspecified) at or over 80% in terms of growth inhibition?
# output NOT MET

# input Please tell me: is the compound O=C(O)c1cccc2cccc(-c3c4ccc(=O)cc-4oc4cc(O)ccc34)c12 at or over 80% in terms of growth inhibition?
# output MET

# input Please tell me: is the compound C=C(CCCO)[C@@H]1CC[C@@](C)(O)[C@H]1C at or over 80% in terms of growth inhibition?
# output NOT MET

# input Please tell me: is the compound COCCCN(Cc1cc(OC)c(OC)c(OC)c1)C(=S)Nc1cccc(Cl)c1 at or over 80% in terms of growth inhibition?
# output NOT MET

# input Please tell me: is the compound CC(C)(C)c1ccc(O)c(C(c2ccc([N+](=O)[O-])cc2)c2cc(C(C)(C)C)ccc2O)c1 at or over 80% in terms of growth inhibition?
# output MET

# input Please tell me: is the compound CCNc1ccc2c(c1)C(=O)N(OS(C)(=O)=O)C2=O at or over 80% in terms of growth inhibition?
# output MET

# input Please tell me: is the compound CCN(CC)CC(O)c1cc(-c2ccc(Cl)cc2)nc2c(-c3ccccc3)cccc12 (stereo unspecified) at or over 80% in terms of growth inhibition?
# output MET

# input Please tell me: is the compound O=C1c2cccc3cc([N+](=O)[O-])cc(c23)C(=O)N1CCN1CCCC1 at or over 80% in terms of growth inhibition?
# output NOT MET

# input Please tell me: is the compound C=C(C)[C@@H]1CCc2c(O)c(O)c(=O)cc(C)c2C1 at or over 80% in terms of growth inhibition?
# output MET

# input Please tell me: is the compound O=Nc1ccc(Nc2ccccc2)cc1 at or over 80% in terms of growth inhibition?
# output MET

# input Please tell me: is the compound Nc1cc(S(N)(=O)=O)ccc1SSc1ccc(S(N)(=O)=O)cc1N at or over 80% in terms of growth inhibition?
# output NOT MET

# input Please tell me: is the compound NC(=O)N1c2ccccc2C=Cc2ccccc21 at or over 80% in terms of growth inhibition?
# output NOT MET
